B1: CD207 (parent)
chain: MTVEKEAPDAHFTVDKQNISLWPR

variants of: B1; assay: protein stability index of a GFP-peptide fusion (GPS, HEK-293T) (PSI 1-6); higher = more stable; details: c terminus: a fixed tail appended;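 note: lentivirally expressed fusions sorted by FACS into six bins by GFP to DsRed ratio, PSI derived from sequencing read proportions per bin multiplied by bin number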
METRIC: protein stability index
// return a plain number; no unit text

CHAIN_SEQUENCE	protein stability index
MTVEKEAPTAHFTVDKQNISLWPR [D9T]	2.94
MTVEKEAPDATFTVDKQNISLWPR [H11T]	3.8
MTVEKEASDAHFTVDKQNISLWPR [P8S]	3.65
MTVEKEAPDASFTVDKQNISLWPR [H11S]	3.58

Consider the variant MTVEKEAPDAHFTVDKQHISLWPR [N18H] and give its measured protein stability index. 3.46

Consider the variant MTVEKEAPDAHFTVDPQNISLWPR [K16P] and give its measured protein stability index. 3.26

Consider the variant MTVEKAAPDAHFTVDKQNISLWPR [E6A] and give its measured protein stability index. 3.21

Consider the variant WTVEKEAPDAHFTVDKQNISLWPR [M1W] and give its measured protein stability index. 3.13

Consider the variant MTVEKEAPDAHFTVDKGNISLWPR [Q17G] and give its measured protein stability index. 3.38

Consider the variant MTVEKEAPDAHFTVDKQNITLWPR [S20T] and give its measured protein stability index. 3.43

Consider the variant MTVEKEAPDAHFTVYKQNISLWPR [D15Y] and give its measured protein stability index. 1.98

Consider the variant MTVEKFAPDAHFTVDKQNISLWPR [E6F] and give its measured protein stability index. 2.27

Consider the variant MTVEKEAPDAHFTVDKQNISLWPP [R24P] and give its measured protein stability index. 3.28

Consider the variant MTVEKEAPDKHFTVDKQNISLWPR [A10K] and give its measured protein stability index. 3.09

Consider the variant MTVEKLAPDAHFTVDKQNISLWPR [E6L] and give its measured protein stability index. 2.72

Consider the variant MTVEKEAPDAHFTVDKQNISYWPR [L21Y] and give its measured protein stability index. 3.39
